tgt: LTC4 synthase (Homo sapiens, UniProt Q16873)
Construct: expressed in transfected cells; host or cells: COS-7 (lysate of transfectants; cDNA from a KG-1 library in pcDNA3)
Sequence (Q16873 whole entry): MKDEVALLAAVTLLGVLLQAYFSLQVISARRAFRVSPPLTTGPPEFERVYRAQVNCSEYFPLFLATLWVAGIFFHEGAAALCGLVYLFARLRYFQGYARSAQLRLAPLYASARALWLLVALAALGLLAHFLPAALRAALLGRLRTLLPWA
experimental_details: Inhibition of LTC4 synthase activity (conversion of LTA4-ME to LTC4-ME) in lysates of transfected COS-7 cells
Type: biochemical
stated_conditions: IC50, inhibition of conversion of LTA4-ME to LTC4-ME, 20 uM LTA4-ME; COS cell lysates; dose-dependent; 10 minutes, room temperature
pIC50: −log10 of the molar value.
measured_parameter: pIC50

Ask: Entry `CC(C)c1ccc2c(c1)c(SC(C)(C)C)c(CC(C)(C)C(=O)O)n2Cc1ccc(Cl)cc1` has what pIC50?
Reply: > 5.52
